The origin of these recorded values is ChEMBL document CHEMBL1154778.

// values below are reported pIC50
Tested on: Human immunodeficiency virus 1
ASSAY_OVERVIEW: Antiviral activity against HIV-1 LAI harboring wild type reverse transcriptase infected in human MT4 cells after 5 days by MTT assay
Assay type: functional, organism-based
TEST_SETTINGS: Human immunodeficiency virus 1, LAI, MT4, 120 h
pIC50: −log10 of the molar value.

# MOLECULE, pIC50
rows = [
    ("Cc1cc(C)cc(Sc2c(CN3CCC(O)CC3)c(C)[nH]c(=O)c2I)c1", 8.30),
    ("CCc1c(C)[nH]c(=O)c(N(C)C)c1C(=O)c1cc(C)cc(C)c1", 8.40),
    ("Cc1cc(C)cc(Oc2c(COCc3ccsc3)c(C)[nH]c(=O)c2I)c1", 8.30),
    ("Cc1cc(C)cc(Sc2c(Cn3nc(CC#N)nc3C)c(C)[nH]c(=O)c2I)c1", 8.30),
    ("Cc1cc(C)cc(Sc2c(Cc3ccc[nH]3)c(C)[nH]c(=O)c2I)c1", 8.40),
    ("Cc1cc(C)cc(Oc2c(Cn3ccc(N)n3)c(C)[nH]c(=O)c2I)c1", 8.10),
    ("CNC(=O)CSCc1c(C)[nH]c(=O)c(I)c1Sc1cc(C)cc(C)c1", 8.80),
    ("Cc1cc(C)cc(Oc2c(CN3CCCC(C#N)C3)c(C)[nH]c(=O)c2I)c1 (stereo unspecified)", 8.40),
    ("Cc1cc(C)cc(Oc2c(CSCc3ccco3)c(C)[nH]c(=O)c2I)c1", 8.90),
    ("CCSCc1c(C)[nH]c(=O)c(I)c1Oc1cc(C)cc(C)c1", 8.90),
    ("Cc1cc(C)cc(Sc2c(Cn3cnc(C)c3C#N)c(C)[nH]c(=O)c2I)c1", 8.90),
    ("CCS(=O)(=O)Cc1c(C)[nH]c(=O)c(I)c1Oc1cc(C)cc(C)c1", 8.10),
    ("Cc1cc(C)cc(Oc2c(CSC(C)C)c(C)[nH]c(=O)c2I)c1", 8.30),
    ("Cc1cc(C)cc(Sc2c(Cn3cncn3)c(C)[nH]c(=O)c2I)c1", 9.00),
    ("CCOC(=O)CSCc1c(C)[nH]c(=O)c(I)c1Oc1cc(C)cc(C)c1", 8.00),
    ("COCC1CCN(Cc2c(C)[nH]c(=O)c(I)c2Sc2cc(C)cc(C)c2)CC1", 8.30),
    ("Cc1cc(C)cc(Oc2c(CSCC3CCCO3)c(C)[nH]c(=O)c2I)c1 (stereo unspecified)", 8.10),
    ("Cc1cc(C)cc(Oc2c(Cn3ccnc3Br)c(C)[nH]c(=O)c2I)c1", 8.10),
    ("Cc1cc(C)cc(Sc2c(CN3CCN(C(=O)c4ccco4)CC3)c(C)[nH]c(=O)c2I)c1", 8.00),
    ("Cc1cc(C)cc(Sc2c(Cn3cnc(C)n3)c(C)[nH]c(=O)c2I)c1", 9.10),
    ("COCCC1CN(Cc2c(C)[nH]c(=O)c(I)c2Sc2cc(C)cc(C)c2)CCO1 (stereo unspecified)", 8.40),
]
